B1: PPP2R2B (parent)
chain: RNTKRDVTLEASRENSKPRAILKP

- Variants of: B1
- experimentSummary: protein stability index of a GFP-peptide fusion (GPS, HEK-293T) (PSI 1-6); higher = more stable;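 further: lentivirally expressed fusions sorted by FACS into six bins by GFP to DsRed ratio, PSI derived from sequencing read proportions per bin multiplied by bin number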
- particulars: c terminus: a fixed tail appended
propertyName: protein stability index

Here's what some known entries look like.
A11I: 3.92
K17D: 4.57
I21T: 4.5
T8F: 3.88
A20T: 4.49

I am curious: what protein stability index value has been reported for `E14G` ?
4.4

Input `K17F`
4.37

Input `R1E`
4.31

Input `R5K`
4.62

Input `D6N`
4.55
